conditions: bacteroides stercoris, 12 h, 2 µM
Description: The drug is tested on Bacteroides stercoris strain: ATCC43183 for biotransformation. The drug concentrations were measured before and after a 12-h incubation by liquid-chromatography-coupled mass spectrometry (LC–MS)
MEASURED_PROPERTY: Bacterial Biotransformation

Examples from the recorded data:
COc1ccccc1OCC(O)CN1CCN(CC(=O)Nc2c(C)cccc2C)CC1 (stereo unspecified)
Compound NOT metabolized
Nc1c2c(nc3ccccc13)CCCC2
Compound NOT metabolized
CCN(CC)CC#CCOC(=O)C(O)(c1ccccc1)C1CCCCC1.Cl (stereo unspecified) [OXYBUTYNIN CHLORIDE]
Compound NOT metabolized
CC(C)(C)NCC(O)COc1cccc2c1CC(O)C(O)C2 (stereo unspecified)
Compound NOT metabolized

# input for lookup
Need Bacterial Biotransformation of O=C1N=C([O-])NC1(c1ccccc1)c1ccccc1.[Na+] [PHENYTOIN SODIUM] , thanks. Compound NOT metabolized

====

test: The drug is tested on Bacteroides fragilis strain: HMW610 for biotransformation. The drug concentrations were measured before and after a 12-h incubation by liquid-chromatography-coupled mass spectrometry (LC–MS); settings: 2 µM
MEASURED_PROPERTY: Bacterial Biotransformation

Consider the worked cases shown below.
CSc1ccc2c(c1)C(N1CCN(C)CC1)Cc1ccccc1S2.O=C(O)/C=C\C(=O)O (configuration not stated)
Compound NOT metabolized
CC(C)(Oc1ccc(CCNC(=O)c2ccc(Cl)cc2)cc1)C(=O)O [BEZAFIBRATE]
Compound metabolized
O=C(CCCN1CCC2(CC1)C(=O)NCN2c1ccccc1)c1ccc(F)cc1
Compound NOT metabolized
CC(C)(C)NCC(O)c1cc(Cl)c(N)c(Cl)c1 (configuration not stated)
Compound NOT metabolized
Cc1nc2n(c(=O)c1CCN1CCC(c3noc4cc(F)ccc34)CC1)CCCC2
Compound metabolized

Given the compound CN(C)CC(c1ccc(O)cc1)C1(O)CCCCC1.O=C(O)CCC(=O)O (configuration not stated) [DESVENLAFAXINE SUCCINATE] , what is its reported Bacterial Biotransformation? Compound NOT metabolized

Here is the next compound: "CN1CCc2c(c3ccccc3n2Cc2ccccc2)C1.CN1CCc2c(c3ccccc3n2Cc2ccccc2)C1.O=S(=O)(O)c1cccc2c(S(=O)(=O)O)cccc12" Compound NOT metabolized

====

assay: The drug is tested on Odoribacter splanchnicus strain: fecal isolate for biotransformation. The drug concentrations were measured before and after a 12-h incubation by liquid-chromatography-coupled mass spectrometry (LC–MS); settings: 2 µM
MEASURED_PROPERTY: Bacterial Biotransformation

Examples from the recorded data:
C=C[C@H]1CN2CC[C@H]1C[C@H]2[C@H](O)c1ccnc2ccc(OC)cc12.C=C[C@H]1CN2CC[C@H]1C[C@H]2[C@H](O)c1ccnc2ccc(OC)cc12.O.O.O=S(=O)(O)O [QUININE SULFATE]
Compound NOT metabolized
CC(C)(C)NC[C@H](O)COc1ccccc1C1CCCC1.CC(C)(C)NC[C@H](O)COc1ccccc1C1CCCC1.O=S(=O)(O)O [PENBUTOLOL SULFATE]
Compound NOT metabolized
CCN(CC)CC#CCOC(=O)C(O)(c1ccccc1)C1CCCCC1.Cl (stereo unspecified) [OXYBUTYNIN CHLORIDE]
Compound metabolized
CC(C)c1nc(CN(C)C(=O)N[C@H](C(=O)N[C@@H](Cc2ccccc2)C[C@H](O)[C@H](Cc2ccccc2)NC(=O)OCc2cncs2)C(C)C)cs1 [RITONAVIR]
Compound metabolized
CN1CCC(OC(c2ccccc2)c2ccccc2)CC1
Compound NOT metabolized

Can you share its Bacterial Biotransformation? I mean this compound: CCN(C(C)=O)c1cccc(-c2ccnc3c(C#N)cnn23)c1 [ZALEPLON] Compound NOT metabolized

Request: O=C(NC(Cc1cc(=O)[nH]c2ccccc12)C(=O)O)c1ccc(Cl)cc1 (stereo unspecified) [REBAMIPIDE] Compound NOT metabolized

Could you do the same for CC(=O)OCC(=O)[C@@]12N=C(C)O[C@@H]1C[C@H]1[C@@H]3CCC4=CC(=O)C=C[C@]4(C)[C@H]3[C@@H](O)C[C@@]12C [DEFLAZACORT] , please? Compound metabolized

Next entry: CN1CCC[C@@H]1CCO[C@](C)(c1ccccc1)c1ccc(Cl)cc1.O=C(O)/C=C/C(=O)O [CLEMASTINE FUMARATE] Compound metabolized

Entry to check: CN1CCC(=C2c3ccccc3CC(=O)c3sccc32)CC1.O=C(O)/C=C/C(=O)O [KETOTIFEN FUMARATE] Compound NOT metabolized

// repeat for O=P1(N(CCCl)CCCl)NCCCO1 (stereo unspecified) [CYCLOPHOSPHAMIDE ANHYDROUS] and report Compound NOT metabolized

Can you handle CCc1oc2ccccc2c1C(=O)c1cc(Br)c(O)c(Br)c1 [BENZBROMARONE] next? Compound NOT metabolized

Same read-out for CNC(=C[N+](=O)[O-])NCCSCc1ccc(CN(C)C)o1 [RANITIDINE] ? Compound metabolized

And then CN(C)C(=O)Oc1cccc([N+](C)(C)C)c1.[Br-] [NEOSTIGMINE BROMIDE] , what is it? Compound NOT metabolized

Here is the next compound: CCC(COC(=O)c1cc(OC)c(OC)c(OC)c1)(c1ccccc1)N(C)C.O=C(O)/C=C\C(=O)O (stereo unspecified) Compound metabolized

Now give it for CNS(=O)(=O)Cc1ccc2[nH]cc(CCN(C)C)c2c1.O=C(O)CCC(=O)O [SUMATRIPTAN SUCCINATE] too. Compound NOT metabolized
